Documented x-fold (Emax) compared to K-(D-1-Nal)-FwLL-NH2 across a set of binders
Molecular target: human ghrelin receptor (human, UniProt Q92847 1-366)
Sequence (Q92847 whole entry): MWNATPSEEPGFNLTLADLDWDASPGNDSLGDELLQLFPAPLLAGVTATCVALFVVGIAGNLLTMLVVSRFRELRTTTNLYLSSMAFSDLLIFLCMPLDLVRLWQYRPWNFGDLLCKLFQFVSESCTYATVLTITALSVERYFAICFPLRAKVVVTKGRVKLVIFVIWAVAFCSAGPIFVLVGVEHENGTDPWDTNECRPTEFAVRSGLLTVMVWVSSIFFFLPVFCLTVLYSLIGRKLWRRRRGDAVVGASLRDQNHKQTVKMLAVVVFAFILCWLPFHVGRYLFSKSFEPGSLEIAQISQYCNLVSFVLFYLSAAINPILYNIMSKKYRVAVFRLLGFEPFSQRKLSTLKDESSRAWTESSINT
Experiment: cell-based or functional assay
Where no end group is shown, it is not given here. [ ]: non-standard residue; d: D form. d1Nal = N[C@H](Cc1cccc2ccccc12)C(=O)O; Nva = CCC[C@H](N)C(=O)O
MEASURED_ATTRIBUTE: x-fold (Emax) compared to K-(D-1-Nal)-FwLL-NH2 (fold)

BINDER	ENDPOINT_VALUE
KXXXLL (1-naphthyl-D-alanine (D-1-Nal) at 2; 3-cyclohexyl-L-alanine (L-Cha) at 3; D-Trp at 4; C-terminal amide) [K-(D-1-Nal)-(L-Cha)-wLL-NH2]	1.3
KXXXLL (1-naphthyl-D-alanine (D-1-Nal) at 2; tert-butyl-L-phenylalanine (L-tBf) at 3; D-Trp at 4; C-terminal amide) [K-(D-1-Nal)-(L-tBf)-wLL-NH2]	1.3
KXXXLL (1-naphthyl-D-alanine (D-1-Nal) at 2; D-Phe at 3; D-Trp at 4; C-terminal amide) [K-(D-1-Nal)-(D-Phe)-wLL-NH2]	0.9
K[d1Nal][Nva][dW]LL-NH2 (N-terminus assumed; SMILES CCC[C@H](NC(=O)[C@@H](Cc1cccc2ccccc12)NC(=O)[C@@H](N)CCCCN)C(=O)N[C@H](Cc1c[nH]c2ccccc12)C(=O)N[C@@H](CC(C)C)C(=O)N[C@@H](CC(C)C)C(N)=O) [K-(D-1-Nal)-(L-Nva)-wLL-NH2]	1.1
